Each recorded value in this set is attributed to patent US20260297060A1.

- measurement protocol: Pharmacokinetics in female BALB/c nude mice bearing A375 xenografts, 1 day dosing (PK and PD study): plasma, tumor and brain concentrations, AUC
- Type: in vivo
- condition details: mouse, plasma, po, 1.5 mg/kg, 1.5 mg/kg p.o. BID × 1 day; post 2nd dose; 0.25 h; read-out: Mean Concentration in Plasma ± SEM
assay metric: concentration at 0.25 h (ng/mL)
One number for each entry, in ng/mL.

Value lookup for concentration at 0.25 h; key = CCN(C)S(=O)(=O)Nc1ccc(F)c(Oc2ccc3ncn([C@H]4COC5(CCN(C6CC7(C6)CN(c6cc8c(cc6F)c(N6CCC(=O)NC6=O)nn8C)C7)CC5)C4)c(=O)c3c2)c1C#N
629
